# Assay Comment: RP-HPLC retention on Cosmosil Cholester column, buffer pH 7.4-acetonitrile
# Type: physicochemical
# Test Settings: slope of Soczewiński-Wachtmeister equation, acetonitrile φ 0.4–0.6
s Cholester reference
Metric: s Cholester

{"Smiles Text": "Cc1cccc(N2CCn3c2nnc(-c2ccco2)c3=O)c1C", "Metric": "s Cholester", "Recorded Result": 3.33}
{"Smiles Text": "CCOc1ccc(N2CCn3c2nnc(Cc2ccc(Cl)cc2)c3=O)cc1", "Metric": "s Cholester", "Recorded Result": 5.35}
{"Smiles Text": "COc1ccc(N2CCn3c2nnc(-c2ccco2)c3=O)cc1", "Metric": "s Cholester", "Recorded Result": 3.05}
{"Smiles Text": "O=c1c(-c2ccccc2)nnc2n1CCN2c1ccccc1Cl", "Metric": "s Cholester", "Recorded Result": 3.65}
{"Smiles Text": "O=c1c(-c2ccco2)nnc2n1CCN2c1ccc(Cl)cc1", "Metric": "s Cholester", "Recorded Result": 4.15}
{"Smiles Text": "CCc1nnc2n(c1=O)CCN2c1ccc(Cl)c(Cl)c1", "Metric": "s Cholester", "Recorded Result": 3.61}
{"Smiles Text": "O=c1c(-c2ccco2)nnc2n1CCN2c1ccccc1Cl", "Metric": "s Cholester", "Recorded Result": 2.95}
{"Smiles Text": "CCOc1ccc(N2CCn3c2nnc(Cc2cccc(Cl)c2)c3=O)cc1", "Metric": "s Cholester", "Recorded Result": 5.22}
{"Smiles Text": "O=c1c(CCc2ccccc2)nnc2n1CCN2c1ccccc1Cl", "Metric": "s Cholester", "Recorded Result": 3.66}
{"Smiles Text": "CCOC(=O)Cc1nnc2n(c1=O)CCN2c1ccc(OC)cc1", "Metric": "s Cholester", "Recorded Result": 1.92}
